Every entry's value here was drawn from paper PMC4434323.

Reported binding signal (PBM E-score (-0.5 to 0.5)) values follow for various sequences
- Study Target: M03D4.4 (M03D4.4) (Caenorhabditis elegans) (UniProt Q21494)
- Sequence: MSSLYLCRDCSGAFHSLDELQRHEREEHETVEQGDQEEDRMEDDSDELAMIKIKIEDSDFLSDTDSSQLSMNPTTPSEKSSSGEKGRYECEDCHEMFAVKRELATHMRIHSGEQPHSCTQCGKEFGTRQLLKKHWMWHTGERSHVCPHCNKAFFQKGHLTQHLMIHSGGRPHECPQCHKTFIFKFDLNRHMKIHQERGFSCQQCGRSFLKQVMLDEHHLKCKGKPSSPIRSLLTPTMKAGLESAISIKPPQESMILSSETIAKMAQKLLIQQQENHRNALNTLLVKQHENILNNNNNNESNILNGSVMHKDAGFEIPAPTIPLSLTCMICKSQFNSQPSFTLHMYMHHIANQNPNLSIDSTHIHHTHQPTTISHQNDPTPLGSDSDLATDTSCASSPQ
Reported Endpoint: binding signal (PBM E-score (-0.5 to 0.5))

[
  {
    "Sequence Text": "CATGCATG (double strand) [8-mer CATGCATG]",
    "Quantitative Readout": 0.498
  },
  {
    "Sequence Text": "ACGCATGA (double strand) [8-mer ACGCATGA]",
    "Quantitative Readout": 0.495
  },
  {
    "Sequence Text": "ATGCATGC (double strand) [8-mer ATGCATGC]",
    "Quantitative Readout": 0.491
  }
]

====

- Study Target: Y53H1A.2 (Y53H1A.2) (Caenorhabditis elegans) (UniProt B1V8K4)
- Sequence: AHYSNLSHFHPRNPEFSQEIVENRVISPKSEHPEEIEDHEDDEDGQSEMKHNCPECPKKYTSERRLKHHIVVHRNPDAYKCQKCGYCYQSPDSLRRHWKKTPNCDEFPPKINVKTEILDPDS
Reported Endpoint: binding signal (PBM E-score (-0.5 to 0.5))

[
  {
    "Sequence Text": "CCACCACC (double strand) [8-mer CCACCACC]",
    "Study Target": "Y53H1A.2 (Y53H1A.2) (Caenorhabditis elegans) (UniProt B1V8K4)",
    "Quantitative Readout": 0.486
  },
  {
    "Sequence Text": "CGGTGGGC (double strand) [8-mer CGGTGGGC]",
    "Study Target": "Y53H1A.2 (Y53H1A.2) (Caenorhabditis elegans) (UniProt B1V8K4)",
    "Quantitative Readout": 0.491
  },
  {
    "Sequence Text": "CGGTCGGC (double strand) [8-mer CGGTCGGC]",
    "Study Target": "Y53H1A.2 (Y53H1A.2) (Caenorhabditis elegans) (UniProt B1V8K4)",
    "Quantitative Readout": 0.487
  },
  {
    "Sequence Text": "CGGCCGCC (double strand) [8-mer CGGCCGCC]",
    "Study Target": "Y53H1A.2 (Y53H1A.2) (Caenorhabditis elegans) (UniProt B1V8K4)",
    "Quantitative Readout": 0.489
  },
  {
    "Sequence Text": "CGGTCGTC (double strand) [8-mer CGGTCGTC]",
    "Study Target": "Y53H1A.2 (Y53H1A.2) (Caenorhabditis elegans) (UniProt B1V8K4)",
    "Quantitative Readout": 0.483
  },
  {
    "Sequence Text": "GCGGCCGC (double strand) [8-mer GCGGCCGC]",
    "Study Target": "Y53H1A.2 (Y53H1A.2) (Caenorhabditis elegans) (UniProt B1V8K4)",
    "Quantitative Readout": 0.488
  },
  {
    "Sequence Text": "CGGCGGCC (double strand) [8-mer CGGCGGCC]",
    "Study Target": "Y53H1A.2 (Y53H1A.2) (Caenorhabditis elegans) (UniProt B1V8K4)",
    "Quantitative Readout": 0.485
  },
  {
    "Sequence Text": "CGACCACC (double strand) [8-mer CGACCACC]",
    "Study Target": "Y53H1A.2 (Y53H1A.2) (Caenorhabditis elegans) (UniProt B1V8K4)",
    "Quantitative Readout": 0.486
  },
  {
    "Sequence Text": "CGGCCGGC (double strand) [8-mer CGGCCGGC]",
    "Study Target": "Y53H1A.2 (Y53H1A.2) (Caenorhabditis elegans) (UniProt B1V8K4)",
    "Quantitative Readout": 0.486
  },
  {
    "Sequence Text": "GGTCGGCA (double strand) [8-mer GGTCGGCA]",
    "Study Target": "Y53H1A.2 (Y53H1A.2) (Caenorhabditis elegans) (UniProt B1V8K4)",
    "Quantitative Readout": 0.481
  },
  {
    "Sequence Text": "ACCACCGC (double strand) [8-mer ACCACCGC]",
    "Study Target": "Y53H1A.2 (Y53H1A.2) (Caenorhabditis elegans) (UniProt B1V8K4)",
    "Quantitative Readout": 0.483
  },
  {
    "Sequence Text": "GGTGGGCA (double strand) [8-mer GGTGGGCA]",
    "Study Target": "Y53H1A.2 (Y53H1A.2) (Caenorhabditis elegans) (UniProt B1V8K4)",
    "Quantitative Readout": 0.487
  },
  {
    "Sequence Text": "CGCCCACC (double strand) [8-mer CGCCCACC]",
    "Study Target": "Y53H1A.2 (Y53H1A.2) (Caenorhabditis elegans) (UniProt B1V8K4)",
    "Quantitative Readout": 0.484
  },
  {
    "Sequence Text": "CGGTGGTC (double strand) [8-mer CGGTGGTC]",
    "Study Target": "Y53H1A.2 (Y53H1A.2) (Caenorhabditis elegans) (UniProt B1V8K4)",
    "Quantitative Readout": 0.481
  },
  {
    "Sequence Text": "CGGCCGAC (double strand) [8-mer CGGCCGAC]",
    "Study Target": "Y53H1A.2 (Y53H1A.2) (Caenorhabditis elegans) (UniProt B1V8K4)",
    "Quantitative Readout": 0.486
  }
]

====

- Study Target: C07E3.6 (C07E3.6) (Caenorhabditis elegans)
- Sequence: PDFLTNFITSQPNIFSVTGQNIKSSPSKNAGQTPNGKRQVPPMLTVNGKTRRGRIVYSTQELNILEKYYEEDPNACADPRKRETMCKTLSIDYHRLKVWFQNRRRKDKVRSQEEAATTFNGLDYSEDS
Reported binding signal (PBM E-score (-0.5 to 0.5)) values for the following sequences.
Reported Endpoint: binding signal (PBM E-score (-0.5 to 0.5))

[
  {
    "Sequence Text": "GATAATTA (double strand) [8-mer GATAATTA]",
    "Quantitative Readout": 0.497
  },
  {
    "Sequence Text": "GTAATTAA (double strand) [8-mer GTAATTAA]",
    "Quantitative Readout": 0.497
  },
  {
    "Sequence Text": "CCTAATTA (double strand) [8-mer CCTAATTA]",
    "Quantitative Readout": 0.496
  },
  {
    "Sequence Text": "CTAATTAG (double strand) [8-mer CTAATTAG]",
    "Quantitative Readout": 0.497
  },
  {
    "Sequence Text": "GCTAATTA (double strand) [8-mer GCTAATTA]",
    "Quantitative Readout": 0.496
  },
  {
    "Sequence Text": "CATAATTA (double strand) [8-mer CATAATTA]",
    "Quantitative Readout": 0.495
  },
  {
    "Sequence Text": "GTTAATTA (double strand) [8-mer GTTAATTA]",
    "Quantitative Readout": 0.498
  },
  {
    "Sequence Text": "TTAATTAA (double strand) [8-mer TTAATTAA]",
    "Quantitative Readout": 0.496
  },
  {
    "Sequence Text": "AGTAATTA (double strand) [8-mer AGTAATTA]",
    "Quantitative Readout": 0.494
  }
]

====

Recorded binding signal (PBM E-score (-0.5 to 0.5)) values for a group of sequences are listed next.
- Study Target: med-2 (K04C2.6) (Caenorhabditis elegans) (UniProt G5EF25)
- Sequence: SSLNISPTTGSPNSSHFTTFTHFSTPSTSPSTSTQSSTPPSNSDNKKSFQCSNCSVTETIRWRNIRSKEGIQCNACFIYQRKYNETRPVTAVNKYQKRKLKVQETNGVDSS
Reported Endpoint: binding signal (PBM E-score (-0.5 to 0.5))

[
  {
    "Sequence Text": "GAGTATAC (double strand) [8-mer GAGTATAC]",
    "Quantitative Readout": 0.499
  },
  {
    "Sequence Text": "GGGTATAC (double strand) [8-mer GGGTATAC]",
    "Quantitative Readout": 0.496
  },
  {
    "Sequence Text": "AAAGTATA (double strand) [8-mer AAAGTATA]",
    "Quantitative Readout": 0.496
  },
  {
    "Sequence Text": "GTATACTA (double strand) [8-mer GTATACTA]",
    "Quantitative Readout": 0.499
  },
  {
    "Sequence Text": "AGGTATAC (double strand) [8-mer AGGTATAC]",
    "Quantitative Readout": 0.496
  },
  {
    "Sequence Text": "AGTATACA (double strand) [8-mer AGTATACA]",
    "Quantitative Readout": 0.498
  },
  {
    "Sequence Text": "AAGTATAC (double strand) [8-mer AAGTATAC]",
    "Quantitative Readout": 0.499
  },
  {
    "Sequence Text": "AGTATACC (double strand) [8-mer AGTATACC]",
    "Quantitative Readout": 0.499
  },
  {
    "Sequence Text": "AGTATACT (double strand) [8-mer AGTATACT]",
    "Quantitative Readout": 0.5
  },
  {
    "Sequence Text": "AGTATACG (double strand) [8-mer AGTATACG]",
    "Quantitative Readout": 0.496
  },
  {
    "Sequence Text": "CAGTATAC (double strand) [8-mer CAGTATAC]",
    "Quantitative Readout": 0.498
  }
]
